Some compounds, each annotated with its measured GI50.
# Tested on: CHO cells
# procedure-details: CHO cell toxicity summarised across the four CHO cell lines
# Format: cell-based, Chinese hamster
# stated-conditions: Cricetulus griseus; across all four CHO cell lines; read-out: GI50 across all cell lines

* O=C(O)c1cc2c([nH]c3ccccc32)c(C(=O)c2c[nH]c3ccccc23)n1 | 10 to 22 µM
* O=C(O)C1Cc2c([nH]c3ccccc23)C=N1 (stereo not shown) | > 226 µM
* c1ccc2c(-c3nccc4c3[nH]c3ccccc34)c[nH]c2c1 [Compound 34, 1-(1H-Indol-3-yl)-9H-pyrido[3,4-b]indole] | 10 to 22 µM

Entry O=Cc1c[nH]c2ccccc12 ; GI50 = > 226 µM
